From: PubChem BioAssay AID1996

# MEASUREMENT CONDITIONS: buffer; pH 7.4; 200.0 µM
// reported solubility kinetic per item

As a guide, the following entries are already answered.
{"COMPOUND": "N#CCSc1nc(-c2ccccc2)nc2ccccc12", "REPORTED VALUE": "< 0.2 µg/mL"}
{"COMPOUND": "Cl.O=C(NC1CCN(Cc2ccccc2)CC1)c1ccccc1NS(=O)(=O)c1ccc(F)cc1", "REPORTED VALUE": "> 75.6 µg/mL"}
{"COMPOUND": "CSc1ccc(Cl)c(C(=O)OCC(=O)N2CCNC2=O)c1", "REPORTED VALUE": "> 49.3 µg/mL"}
{"COMPOUND": "COc1cc(OC)cc(C(=O)NCC(=O)OCC(=O)NCc2ccco2)c1", "REPORTED VALUE": "> 56.5 µg/mL"}
{"COMPOUND": "COc1ccc(C2=NOC(C(=O)NCc3cccnc3)C2)cc1OC (stereo unspecified)", "REPORTED VALUE": "> 51.2 µg/mL"}

// query Write down solubility kinetic measured for item O=C1NC(=S)N/C1=C\c1cccnc1
// result > 30.8 µg/mL

// query Look up and report measured solubility kinetic for this entry: CC12CC3CC(C)(C1)CC(NCc1ccncc1)(C3)C2.Cl
// result > 46 µg/mL

// query Please give measured solubility kinetic of the following entry: CCCc1cc(C(=O)NC(C)C2CCCO2)cs1 (stereo unspecified)
// result > 40.1 µg/mL

// query Consider the compound CC(=O)c1sc(NC(=O)Cc2c(F)cccc2Cl)nc1C . State its measured solubility kinetic.
// result 8.2 µg/mL

// query Let me know recorded solubility kinetic for CCC1CCCCN1Cc1c(O)ccc2c(=O)c(-c3ccccc3)coc12 (stereo unspecified) , thanks.
// result 50.1 µg/mL

// query Report solubility kinetic, nothing else, for this compound: Cn1ccnc1SCC(=O)c1ccc(C#N)cc1
// result > 38.6 µg/mL

====

Measured solubility kinetic, listed per entry for reference.
# MEASUREMENT CONDITIONS: buffer; pH 7.4; 200.0 µM

Observe how each entry below is paired with its result.
{"COMPOUND": "O=C(NNC(=O)c1cccs1)c1ccc(Cl)nc1", "REPORTED VALUE": "> 42.3 µg/mL"}
{"COMPOUND": "Cc1cccc(NS(=O)(=O)c2cc(Cl)ccc2Cl)n1", "REPORTED VALUE": "> 47.6 µg/mL"}
{"COMPOUND": "Cc1ccc(N2C(=O)CC(=O)NC2=O)cc1Cl", "REPORTED VALUE": "> 37.9 µg/mL"}

// query Name the recorded solubility kinetic of the item CC1CCCCC1NC(=O)COC(=O)c1ccc([N+](=O)[O-])o1 (centres undefined) in your answer.
// result > 46.5 µg/mL

// query Identify solubility kinetic associated with the compound O=C(CCc1c[nH]c2ccccc12)Nc1ncccc1O
// result > 42.2 µg/mL

// query Specify reported solubility kinetic for the compound shown: CCc1ccc(NC(=O)NCCCN2CCCC2=O)cc1
// result > 43.4 µg/mL

// query Provide only the value of recorded solubility kinetic for COc1ccccc1CNC(=O)COC(=O)c1ccccn1
// result > 45 µg/mL

// query For Cc1onc(-c2ccccc2)c1-c1ccc(S(N)(=O)=O)cc1 , write its solubility kinetic.
// result > 47.2 µg/mL

// query Please give measured solubility kinetic of the following entry: CC(=O)c1ccc(NC(=O)CN2CCCC2)cc1
// result > 36.9 µg/mL

// query For the compound CCOC(=O)C(=O)NCC(c1ccco1)S(=O)(=O)c1cccs1 (centres undefined) , report solubility kinetic.
// result > 53.6 µg/mL

// query Hello, please tell me recorded solubility kinetic for this one: Cc1ccnc(SCC(=O)NC2CC2)n1
// result > 33.5 µg/mL

====

# MEASUREMENT CONDITIONS: buffer; pH 7.4; 200.0 µM
Reported solubility kinetic values follow for various compounds

Worked examples, 6 compounds total:
{"COMPOUND": "CCOc1ccc2nc(S(N)(=O)=O)sc2c1", "solubility kinetic": "> 38.7 µg/mL"}
{"COMPOUND": "CC(=O)N1CCC[C@H]1C(=O)O", "solubility kinetic": "> 23.6 µg/mL"}
{"COMPOUND": "Clc1cccc(Cl)c1CO/N=C/c1cccs1", "solubility kinetic": "> 42.9 µg/mL"}
{"COMPOUND": "Cc1ccc(NC(=O)COC(=O)Cn2cnc3c2c(=O)n(C)c(=O)n3C)cc1", "solubility kinetic": "> 57.8 µg/mL"}
{"COMPOUND": "CCC(C)C(=O)Nc1nc2ccc(OC)cc2s1 (stereo not given)", "solubility kinetic": "> 39.7 µg/mL"}
{"COMPOUND": "CN1CCOC(c2ccccc2)c2ccccc2C1.Cl (stereo not given)", "solubility kinetic": "> 43.5 µg/mL"}

// query Tell me solubility kinetic reported for Cc1cc(C)c2c(NC(=O)CCl)nn(C)c2n1
// result > 37.9 µg/mL

// query Identify the reported solubility kinetic for the following entry. Cc1ccc(C(=O)NC(C)C(c2cccs2)N2CCCC2)s1 (stereo not given)
// result > 50.2 µg/mL

// query Give the reported solubility kinetic for this compound. CC1C(=O)Nc2ccccc2N1C(=O)c1ccc(F)cc1 (stereo not given)
// result > 42.6 µg/mL

====

# MEASUREMENT CONDITIONS: buffer; pH 7.4; 200.0 µM
// reported log10(solubility kinetic) per item
Plainly stated, the numbers are log10 of solubility kinetic given in µg/mL.

A selection of reference data follows.
{"COMPOUND": "CC(CCc1ccccc1)NC(=O)CCC1CCCC1 (stereo unspecified)", "log10(solubility kinetic)": 1.16}
{"COMPOUND": "Cc1cccc(OC(C)C(=O)N2CCc3ccccc3C2)c1 (stereo unspecified)", "log10(solubility kinetic)": 1.56}
{"COMPOUND": "CCOc1nc(CC(C)C)c2c(c1C#N)CC(C)(C)OC2", "log10(solubility kinetic)": 0.38}
{"COMPOUND": "COc1ccc(CC(CC(=O)O)C(=O)NCc2ccccc2)cc1 (stereo unspecified)", "log10(solubility kinetic)": 1.69}
{"COMPOUND": "CC(C)Cn1c(N)c(C(=O)COC(=O)c2cc3ccccc3cc2O)c(=O)n(C)c1=O", "log10(solubility kinetic)": 0.65}
{"COMPOUND": "CC(C)[C@H](NC(=O)c1ccccc1Cl)C(=O)OCC(=O)Nc1ccc(S(=O)(=O)N2CCOCC2)cc1", "log10(solubility kinetic)": 1.61}

// query Please supply the value of reported log10(solubility kinetic) for the item O=C1NC(C(F)(F)F)(C(F)(F)F)N=C2SC=CN12
// result 1.62

// query Provide only the value of recorded log10(solubility kinetic) for CC(=O)c1c(N2CCOCC2)nc2ccc(Cl)cc2c1-c1ccccc1
// result 0.26

// query Indicate its recorded log10(solubility kinetic); the compound in question is COc1ccc(NC(=O)CSc2nc3ccc(OC)cc3[nH]2)cc1
// result 0.78

// query For the compound Cc1ccc(S(=O)(=O)N(C)C)cc1NC(=O)C1CCC1 , give its measured log10(solubility kinetic) value.
// result 1.60

// query For CCOc1ccc2oc(C(=O)Nc3cc(C)ccn3)c(C)c2c1 , write its log10(solubility kinetic).
// result 0.08

// query Write down log10(solubility kinetic) measured for item COC(=O)c1ccsc1NC(=O)c1ccco1
// result 0.51

====

Listed here are compounds together with their documented solubility kinetic.
# MEASUREMENT CONDITIONS: buffer; pH 7.4; 200.0 µM

{"COMPOUND": "COc1ccccc1C(=O)NC(=O)CSc1nnc(C)s1", "REPORTED VALUE": "> 48.5 µg/mL"}

// query Tell me measured solubility kinetic for CN(C)c1ccc(CNCC2CCCO2)cc1.Cl (stereo not drawn) please.
// result > 40.6 µg/mL

// query Supply recorded solubility kinetic for CC(=O)NS(=O)(=O)c1ccc(NC(=O)c2ccc3c(c2)NC(=O)CS3)cc1 here.
// result > 60.8 µg/mL

====

# MEASUREMENT CONDITIONS: buffer; pH 7.4; 200.0 µM
MEASURE: solubility kinetic (µg/mL)
Note: unit µg/mL is implicit; provide only the numeric part.

{"MOLECULE": "Cc1ccc(CNC(=O)c2cccnc2Sc2cccc(Cl)c2)cc1", "REPORTED VALUE": 0.5}

// query Supply recorded solubility kinetic for CC(=O)c1nc2ccccc2n1CCc1ccccc1 here.
// result 27.5

// query Provide measured solubility kinetic value, entry: COc1ccc(NC(=O)c2cc(C)nc3ccccc23)cc1S(=O)(=O)N1CCOCC1
// result 6.1

// query Query solubility kinetic for Cc1ccc(F)c(NC(=O)c2c(-c3ccccc3)noc2C)c1
// result 2.2

====

# MEASUREMENT CONDITIONS: buffer; pH 7.4; 200.0 µM
MEASURE: solubility kinetic

{"COMPOUND": "CC(C)OP(=O)(c1ccc(N(C)C)cc1)C(O)c1ccc(N(C)C)cc1 (centres undefined)", "solubility kinetic": "> 56.5 µg/mL"}
{"COMPOUND": "CN(C(=O)C(Cl)Cl)c1ccc(OC(=O)c2ccco2)cc1", "solubility kinetic": "> 49.2 µg/mL"}
{"COMPOUND": "O=C(NCc1csc(-c2cccs2)n1)Nc1ccc(C(F)(F)F)cc1", "solubility kinetic": "< 0.3 µg/mL"}

Alright, here's another compound for you.
// query Determine its reported solubility kinetic: Cc1ccc(CNC(=O)CSc2nc(C)cs2)cc1
// result > 43.9 µg/mL
